assay: qHTS for Inhibitors of Plasmodium falciparum (7G8) proliferation (AID 504316); note: nearly all actives have a fitted effect of over 65% in size; details: P. falciparum 7G8 in erythrocytes, SYBR Green DNA, 72 h; series mostly up to 6.7 µM
Records with an inconclusive call do not appear. Activity calls are given as the source filed them. Calls come from the whole dose curve; as a rule, active = well fitted inhibition curve with a large enough effect; inconclusive = small, poorly fitted or top-dose-only effect; inactive = flat fitted curve, though single readings scatter.
Respond with a class label; see active, inactive

Here's what some known entries look like.
INSERT INTO assay_data (compound, class) VALUES
  ('CCCC[C@@H]1CN2[C@@H](CC[C@H](C)[C@@H]2c2ccc(Br)cc2)C(=O)O1', 'inactive'),
  ('CC=COC(=O)N[C@@H](c1ccccc1)[C@]1(C(C)=O)CCCC1=O', 'inactive'),
  ('COC(=O)CC=C[C@@H](C)[C@@H](Cc1ccccc1Br)OC', 'inactive');

Input line: So what was the verdict on COC(=O)C(c1ccc(OC)c(OC)c1)C1c2ccccc2C=C(C)N1C(=O)OC (stereo unspecified) in this test?
Output line: inactive

Input line: So what was the verdict on O=C1CCC=C1C(O)c1ccccc1 (stereo unspecified) in this test?
Output line: inactive

Input line: So what was the verdict on Cc1ccc([S+](=O)([O-])N(c2ccccc2)[S+](=O)([O-])C(F)(F)F)cc1 in this test?
Output line: inactive

Input line: So what was the verdict on COC(=O)C1=C(C)N(CCC(C)O)C(=O)N(C(C)=O)C1c1ccccc1 (stereo unspecified) in this test?
Output line: inactive
